B1: C1orf137 (parent)
chain: LPQETNLTLKVCKPQAPQKLDPTL

Variants of: B1
Experiment: protein stability index of a GFP-peptide fusion (GPS, HEK-293T) (PSI 1-6); higher = more stable;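 note: lentivirally expressed fusions sorted by FACS into six bins by GFP to DsRed ratio, PSI derived from sequencing read proportions per bin multiplied by bin number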
Settings: c terminus: a fixed tail appended
Record Fulfilled whenever protein stability index is at 4 or higher; record Not fulfilled when lower.

Could you please find out whether "L20K" has protein stability index that meets 4 or exceeds it?
Fulfilled

# iterate: "D21R"
Not fulfilled

"Q18L" , same question.
Not fulfilled

Same again, this time with "L9V"
Fulfilled

Do the same for "Q3P" please
Not fulfilled

Also "T8V" , if possible.
Not fulfilled

What do you have for "L9S" ?
Not fulfilled

Also "T5G" , if possible.
Not fulfilled

Further, for "V11G" ?
Not fulfilled

Okay, and "Q15R" ?
Not fulfilled

Param item: "T8H"
Not fulfilled

// repeat for "L7R" and report
Fulfilled

Further, for "V11P" ?
Fulfilled

// repeat for "P14C" and report
Not fulfilled

Please answer likewise for "L7T"
Fulfilled

Let us now turn to "E4K"
Not fulfilled

// repeat for "Q3H" and report
Not fulfilled

Now the same for "D21M"
Not fulfilled
